Recorded viability, T/C for the following compounds
Test system: 276233-004-R-J1-PDC complex spheroid viability
Test: Anticancer human tumor 276233-004-R-J1-PDC patient-derived colon adenocarcinoma cell line growth inhibition [GQUAD]
Settings: second compound 3.16 µM; first compound 0.00316 µM; active compounds read low
assay_metric: viability, T/C (%)

compound="Cc1[nH]c2ccccc2c1CCNCc1ccc(/C=C/C(=O)NO)cc1 + CN(C)c1ccc(Nc2c3ccc(NC(=O)CCN4CCCC4)cc3nc3cc(NC(=O)CCN4CCCC4)ccc23)cc1" assay_metric="viability, T/C" unit_abbrev=% reading=47.9
compound="Cn1ncnc1[C@H]1c2n[nH]c(=O)c3cc(F)cc(c23)N[C@@H]1c1ccc(F)cc1 + Cc1[nH]c2ccc(F)cc2c1-c1nc2c3cccnc3c3ncccc3c2[nH]1" assay_metric="viability, T/C" unit_abbrev=% reading=66.5
compound="CCc1c2c(nc3ccc(O)cc13)-c1cc3c(c(=O)n1C2)COC(=O)[C@]3(O)CC + CN(C)c1ccc(Nc2c3ccc(NC(=O)CCN4CCCC4)cc3nc3cc(NC(=O)CCN4CCCC4)ccc23)cc1" assay_metric="viability, T/C" unit_abbrev=% reading=46.4
compound="CC[C@@]1(O)C(=O)OCc2c1cc1n(c2=O)Cc2cc3c(CN(C)C)c(O)ccc3nc2-1 + Cc1[nH]c2ccc(F)cc2c1-c1nc2c3cccnc3c3ncccc3c2[nH]1" assay_metric="viability, T/C" unit_abbrev=% reading=54.4
compound="Cn1ncnc1[C@H]1c2n[nH]c(=O)c3cc(F)cc(c23)N[C@@H]1c1ccc(F)cc1 + CN(C)c1ccc(Nc2c3ccc(NC(=O)CCN4CCCC4)cc3nc3cc(NC(=O)CCN4CCCC4)ccc23)cc1" assay_metric="viability, T/C" unit_abbrev=% reading=60.7

* * *

System: 276233-004-R-J1-PDC complex spheroid viability
Assay: Anticancer human tumor 276233-004-R-J1-PDC cell line growth inhibition [GQUAD];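 further: spheroids exposed to drugs for seven days; 100% = DMSO vehicle control viability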
Conditions: second compound 10 µM; first compound 0.1 µM; active compounds read low
assay_metric: viability, T/C (%)

compound="Cc1cccc(N(C)C(=O)C2C(O)CCN2c2nc(C)cc(C(F)(F)F)c2C#N)c1 (stereo unspecified) + Cc1[nH]c2ccc(F)cc2c1-c1nc2c3cccnc3c3ncccc3c2[nH]1" reading=58.4
compound="O=C(NO)c1cnc(N2CCN(S(=O)(=O)c3ccc4ccccc4c3)CC2)nc1 + Cc1cnc(CNC(=O)c2c(=O)c3ccc(N4CCCN(C)CC4)nc3n3c2sc2ccccc23)cn1" reading=54.2
compound="CC(C)(O)C1CCC(Nc2ccc3ncc(-c4cccc(C(F)(F)F)c4)n3n2)CC1 (stereo unspecified) + Cc1cnc(CNC(=O)c2c(=O)c3ccc(N4CCCN(C)CC4)nc3n3c2sc2ccccc23)cn1" reading=57
compound="CCCS(=O)(=O)Nc1ccc(F)c(C(=O)c2c[nH]c3ncc(-c4ccc(Cl)cc4)cc23)c1F + CN(C)c1ccc(Nc2c3ccc(NC(=O)CCN4CCCC4)cc3nc3cc(NC(=O)CCN4CCCC4)ccc23)cc1" reading=45.9
compound="CC1COCCN1c1cc(C2(O)CC3CCC(C2)O3)c2cnn(-c3ccn[nH]3)c2n1 (stereo unspecified) + Cc1[nH]c2ccc(F)cc2c1-c1nc2c3cccnc3c3ncccc3c2[nH]1" reading=44.3
compound="CC1COCCN1c1cc(C2(S(C)(=N)=O)CC2)nc(-c2ccnc3[nH]ccc23)n1 (stereo unspecified) + Cc1cnc(CNC(=O)c2c(=O)c3ccc(N4CCCN(C)CC4)nc3n3c2sc2ccccc23)cn1" reading=66
compound="COc1ncnc(C2CC2)c1-c1ncc2cnn(Cc3ccc(-c4nc(C(F)(F)F)cn4C(C)C)cc3)c2n1 + Cc1cnc(CNC(=O)c2c(=O)c3ccc(N4CCCN(C)CC4)nc3n3c2sc2ccccc23)cn1" reading=60.9
compound="COc1ccc([C@@H](O)c2cc(-c3ncnc4cc(N5CCOCC5)ccc34)c(F)cc2Cl)nn1 + Cc1[nH]c2ccc(F)cc2c1-c1nc2c3cccnc3c3ncccc3c2[nH]1" reading=48
compound="Nc1ccn(C2OC(CO)C(O)C2(F)F)c(=O)n1 (stereo unspecified) + Cc1cnc(CNC(=O)c2c(=O)c3ccc(N4CCCN(C)CC4)nc3n3c2sc2ccccc23)cn1" reading=75.2
compound="CC1COCCN1c1cc(C2(S(C)(=N)=O)CC2)nc(-c2ccnc3[nH]ccc23)n1 (stereo unspecified) + Cc1[nH]c2ccc(F)cc2c1-c1nc2c3cccnc3c3ncccc3c2[nH]1" reading=49.5
compound="COc1ncnc(C2CC2)c1-c1ncc2cnn(Cc3ccc(-c4nc(C(F)(F)F)cn4C(C)C)cc3)c2n1 + Cc1[nH]c2ccc(F)cc2c1-c1nc2c3cccnc3c3ncccc3c2[nH]1" reading=29.5
compound="O=C(c1cc(Cc2n[nH]c(=O)c3ccccc23)ccc1F)N1CCN(C(=O)C2CC2)CC1 + Cc1cnc(CNC(=O)c2c(=O)c3ccc(N4CCCN(C)CC4)nc3n3c2sc2ccccc23)cn1" reading=68.1
compound="CC1COCCN1c1cc(-c2ccnn2C)c2ccnc(-c3ccn[nH]3)c2n1 (stereo unspecified) + CN(C)c1ccc(Nc2c3ccc(NC(=O)CCN4CCCC4)cc3nc3cc(NC(=O)CCN4CCCC4)ccc23)cc1" reading=40.1
compound="COc1ncnc(C2CC2)c1-c1ncc2cnn(Cc3ccc(-c4nc(C(F)(F)F)cn4C(C)C)cc3)c2n1 + CN(C)c1ccc(Nc2c3ccc(NC(=O)CCN4CCCC4)cc3nc3cc(NC(=O)CCN4CCCC4)ccc23)cc1" reading=41.8
compound="C=CCn1c(=O)c2cnc(Nc3ccc(N4CCN(C)CC4)cc3)nc2n1-c1cccc(C(C)(C)O)n1 + Cc1cnc(CNC(=O)c2c(=O)c3ccc(N4CCCN(C)CC4)nc3n3c2sc2ccccc23)cn1" reading=66.1
compound="COc1ccc([C@@H](O)c2cc(-c3ncnc4cc(N5CCOCC5)ccc34)c(F)cc2Cl)nn1 + CN(C)c1ccc(Nc2c3ccc(NC(=O)CCN4CCCC4)cc3nc3cc(NC(=O)CCN4CCCC4)ccc23)cc1" reading=56.2
compound="COc1cc(C2c3cc4c(cc3C(OC3OC5COC(C)OC5C(O)C3O)C3COC(=O)C23)OCO4)cc(OC)c1O (stereo unspecified) + Cc1cnc(CNC(=O)c2c(=O)c3ccc(N4CCCN(C)CC4)nc3n3c2sc2ccccc23)cn1" reading=72.2
compound="CC(C)(O)C1CCC(Nc2ccc3ncc(-c4cccc(C(F)(F)F)c4)n3n2)CC1 (stereo unspecified) + CN(C)c1ccc(Nc2c3ccc(NC(=O)CCN4CCCC4)cc3nc3cc(NC(=O)CCN4CCCC4)ccc23)cc1" reading=43.4
compound="CC1COCCN1c1cc(-c2ccnn2C)c2ccnc(-c3ccn[nH]3)c2n1 (stereo unspecified) + Cc1cnc(CNC(=O)c2c(=O)c3ccc(N4CCCN(C)CC4)nc3n3c2sc2ccccc23)cn1" reading=50.6
compound="C=CC(=O)N1CCN(c2nc(=O)n(-c3c(C)ccnc3C(C)C)c3nc(-c4c(O)cccc4F)c(F)cc23)C(C)C1 (stereo unspecified) + Cc1[nH]c2ccc(F)cc2c1-c1nc2c3cccnc3c3ncccc3c2[nH]1" reading=38.7
compound="C#Cc1c(F)ccc2cc(O)cc(-c3ncc4c(N5CC6CCC(C5)N6)nc(OCC56CCCN5CC(F)C6)nc4c3F)c12 (stereo unspecified) + Cc1cnc(CNC(=O)c2c(=O)c3ccc(N4CCCN(C)CC4)nc3n3c2sc2ccccc23)cn1" reading=73.5

* * *

Recorded viability, T/C for the following molecules
System: 276233-004-R-J1-PDC complex spheroid viability
Assay: Anticancer human tumor 276233-004-R-J1-PDC cell line growth inhibition [GQUAD];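 further: spheroids exposed to drugs for seven days; 100% = DMSO vehicle control viability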
Conditions: second compound 0.1 µM; first compound 0.0316 µM; active compounds read low
assay_metric: viability, T/C (%)

molecule="O=C(c1cc(Cc2n[nH]c(=O)c3ccccc23)ccc1F)N1CCN(C(=O)C2CC2)CC1 + CN(C)c1ccc(Nc2c3ccc(NC(=O)CCN4CCCC4)cc3nc3cc(NC(=O)CCN4CCCC4)ccc23)cc1" reading=98.9
molecule="CCc1c2c(nc3ccc(O)cc13)-c1cc3c(c(=O)n1C2)COC(=O)[C@]3(O)CC + Cc1cnc(CNC(=O)c2c(=O)c3ccc(N4CCCN(C)CC4)nc3n3c2sc2ccccc23)cn1" reading=110
molecule="CCc1c2c(nc3ccc(O)cc13)-c1cc3c(c(=O)n1C2)COC(=O)[C@]3(O)CC + CN(C)c1ccc(Nc2c3ccc(NC(=O)CCN4CCCC4)cc3nc3cc(NC(=O)CCN4CCCC4)ccc23)cc1" reading=107
molecule="Cn1ncnc1[C@H]1c2n[nH]c(=O)c3cc(F)cc(c23)N[C@@H]1c1ccc(F)cc1 + Cc1[nH]c2ccc(F)cc2c1-c1nc2c3cccnc3c3ncccc3c2[nH]1" reading=88.5
molecule="CC(C)n1c(=O)n(C)c2cnc3cc(F)c(-c4ccc(OCCCN5CCCCC5)nc4)cc3c21 + Cc1[nH]c2ccc(F)cc2c1-c1nc2c3cccnc3c3ncccc3c2[nH]1" reading=90.9
molecule="O=C(NO)c1cnc(N2CCN(S(=O)(=O)c3ccc4ccccc4c3)CC2)nc1 + Cc1[nH]c2ccc(F)cc2c1-c1nc2c3cccnc3c3ncccc3c2[nH]1" reading=83.2
molecule="O=c1[nH]cc(F)c(=O)[nH]1 + Cc1[nH]c2ccc(F)cc2c1-c1nc2c3cccnc3c3ncccc3c2[nH]1" reading=79.3
molecule="O=c1[nH]cc(F)c(=O)[nH]1 + Cc1cnc(CNC(=O)c2c(=O)c3ccc(N4CCCN(C)CC4)nc3n3c2sc2ccccc23)cn1" reading=97.1
molecule="CC(C)(O)C1CCC(Nc2ccc3ncc(-c4cccc(C(F)(F)F)c4)n3n2)CC1 (centres undefined) + CN(C)c1ccc(Nc2c3ccc(NC(=O)CCN4CCCC4)cc3nc3cc(NC(=O)CCN4CCCC4)ccc23)cc1" reading=82.6
molecule="CC1COCCN1c1cc(-c2ccnn2C)c2ccnc(-c3ccn[nH]3)c2n1 (centres undefined) + CN(C)c1ccc(Nc2c3ccc(NC(=O)CCN4CCCC4)cc3nc3cc(NC(=O)CCN4CCCC4)ccc23)cc1" reading=80.4
molecule="C=CCn1c(=O)c2cnc(Nc3ccc(N4CCN(C)CC4)cc3)nc2n1-c1cccc(C(C)(C)O)n1 + CN(C)c1ccc(Nc2c3ccc(NC(=O)CCN4CCCC4)cc3nc3cc(NC(=O)CCN4CCCC4)ccc23)cc1" reading=81.6
molecule="Nc1ccn(C2OC(CO)C(O)C2(F)F)c(=O)n1 (centres undefined) + CN(C)c1ccc(Nc2c3ccc(NC(=O)CCN4CCCC4)cc3nc3cc(NC(=O)CCN4CCCC4)ccc23)cc1" reading=86.1
molecule="Cc1cccc(N(C)C(=O)C2C(O)CCN2c2nc(C)cc(C(F)(F)F)c2C#N)c1 (centres undefined) + Cc1cnc(CNC(=O)c2c(=O)c3ccc(N4CCCN(C)CC4)nc3n3c2sc2ccccc23)cn1" reading=75.4
molecule="Cn1ncnc1[C@H]1c2n[nH]c(=O)c3cc(F)cc(c23)N[C@@H]1c1ccc(F)cc1 + CN(C)c1ccc(Nc2c3ccc(NC(=O)CCN4CCCC4)cc3nc3cc(NC(=O)CCN4CCCC4)ccc23)cc1" reading=84.7
